Recorded Ki, one value per entry.
TARGET_UNDER_TEST: von Hippel-Lindau disease tumor suppressor/Bromodomain-containing protein 4/Elongin-B/Elongin-C (Homo sapiens, UniProt O60885+P40337+Q15369+Q15370)
Sequence (P40337 whole entry, looked up, other chains not shown): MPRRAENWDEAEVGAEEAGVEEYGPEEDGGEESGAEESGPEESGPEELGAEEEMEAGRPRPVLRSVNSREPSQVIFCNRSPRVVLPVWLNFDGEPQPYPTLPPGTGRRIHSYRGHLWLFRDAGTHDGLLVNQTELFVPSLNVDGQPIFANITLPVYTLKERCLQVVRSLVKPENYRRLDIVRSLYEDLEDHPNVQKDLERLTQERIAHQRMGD
Sequence (Q15369 whole entry, looked up, other chains not shown): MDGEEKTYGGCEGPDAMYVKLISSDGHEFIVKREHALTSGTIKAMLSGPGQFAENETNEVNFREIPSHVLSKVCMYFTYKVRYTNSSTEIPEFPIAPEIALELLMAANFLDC
Sequence (Q15370 whole entry, looked up, other chains not shown): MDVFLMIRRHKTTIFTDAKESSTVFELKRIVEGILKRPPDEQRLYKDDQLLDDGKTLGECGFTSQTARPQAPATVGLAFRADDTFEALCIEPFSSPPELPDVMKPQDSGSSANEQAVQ
EXPERIMENT_NOTES: Displacement of (2S,4R)-N-(4-bromobenzyl)-4-hydroxy-1-(3,3,3-trifluoropropanoyl)pyrrolidine-2-carboxamide from BRD4 bromodomain 2/VBC E3 ligase (unknown origin) ternary complex assessed as inhibition constant by 19F NMR assay
MEASUREMENT_TYPE: Ki (nM)

>>> measured("CC(=O)N1c2ccc(-c3ccc(C(=O)NCCOCCOCCOCCOCC(=O)N[C@H](C(=O)N4C[C@H](O)C[C@H]4C(=O)NCc4ccc(-c5scnc5C)cc4)C(C)(C)C)cc3)cc2[C@H](Nc2ccc(Cl)cc2)C[C@@H]1C")
597
>>> measured("CC(=O)N1c2ccc(-c3ccc(C(=O)NCCOCCOCC(=O)N[C@H](C(=O)N4C[C@H](O)C[C@H]4C(=O)NCc4ccc(-c5scnc5C)cc4)C(C)(C)C)cc3)cc2[C@H](Nc2ccc(Cl)cc2)C[C@@H]1C")
1190
>>> measured("Cc1ncsc1-c1ccc(CNC(=O)[C@@H]2[C@H](F)[C@@H](O)CN2C(=O)[C@@H](NC(=O)COCCOCCOCCNC(=O)C[C@@H]2N=C(c3ccc(Cl)cc3)c3c(sc(C)c3C)-n3c(C)nnc32)C(C)(C)C)cc1")
71
